- measurementTarget: UniProt:O96013
- Sequence (O96013 whole entry): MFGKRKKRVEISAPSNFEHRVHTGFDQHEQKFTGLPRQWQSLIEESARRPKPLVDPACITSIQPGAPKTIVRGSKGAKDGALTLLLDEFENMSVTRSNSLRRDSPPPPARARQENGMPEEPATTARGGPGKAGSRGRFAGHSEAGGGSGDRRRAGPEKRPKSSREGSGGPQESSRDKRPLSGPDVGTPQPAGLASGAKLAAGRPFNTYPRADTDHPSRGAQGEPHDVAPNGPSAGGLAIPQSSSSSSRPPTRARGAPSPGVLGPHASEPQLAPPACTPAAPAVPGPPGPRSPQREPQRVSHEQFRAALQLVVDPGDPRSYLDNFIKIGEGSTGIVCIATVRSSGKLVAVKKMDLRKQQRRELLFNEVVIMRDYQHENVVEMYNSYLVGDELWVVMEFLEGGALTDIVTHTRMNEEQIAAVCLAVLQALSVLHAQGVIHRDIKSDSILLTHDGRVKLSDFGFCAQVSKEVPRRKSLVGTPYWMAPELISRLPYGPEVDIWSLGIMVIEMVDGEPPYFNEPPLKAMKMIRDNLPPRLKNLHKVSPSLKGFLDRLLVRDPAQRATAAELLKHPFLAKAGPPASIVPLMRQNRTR
- experimentalProtocol: Z'Lyte fluorescence-based (FRET) PAK kinase assay, PAK4
- Assay type: biochemical
- experimentalParameters: Table 1 of Example 29 (own compound numbering); 5 μM ATP
// values below are reported IC50
parameter: IC50

INSERT INTO results (molecule, experimentalvalue) VALUES
  ('CN1CCN(c2ccc(Nc3ncc4ccc(=O)n(C5CCOc6ccccc65)c4n3)cc2)CC1 (stereo not drawn)', '1000 to 10000 nM'),
  ('CN1CCN(c2ccc(Nc3ncc4ccc(=O)n(Cc5ccccc5OC(F)(F)F)c4n3)cc2)CC1 [compound 97]', '< 1000 nM'),
  ('CN1CCN(c2ccc(Nc3ncc4ccc(=O)n(Cc5c(F)cccc5C(F)(F)F)c4n3)cc2)CC1', '< 1000 nM'),
  ('CN1CCN(c2ccc(Nc3ncc4ccc(=O)n(Cc5ccccc5OC(F)F)c4n3)cc2)CC1', '< 1000 nM'),
  ('CN(C)CC(c1ccccc1)n1c(=O)ccc2cnc(Nc3ccc(N4CCN(C)CC4)cc3)nc21 (stereo not drawn)', '> 10000 nM'),
  ('CN1CCN(c2ccc(Nc3ncc4ccc(=O)n(Cc5ccccc5-c5ncno5)c4n3)cc2)CC1', '1000 to 10000 nM'),
  ('O=c1ccc2cnc(Nc3ccc(NC4CCNCC4)cc3)nc2n1Cc1ccccc1C(F)(F)F', '< 1000 nM'),
  ('O=c1ccc2cnc(Nc3ccc(N4CCOCC4)cc3)nc2n1C1CCCC1', '1000 to 10000 nM'),
  ('COc1ccc(F)cc1Cn1c(=O)ccc2cnc(Nc3ccc(N4CCN(C)CC4)cc3)nc21', '1000 to 10000 nM'),
  ('CN1CCN(c2ccc(Nc3ncc4ccc(=O)n(Cc5cccnc5)c4n3)cc2)CC1', '> 10000 nM'),
  ('CN(C)CC(c1ccccc1)n1c(=O)ccc2cnc(Nc3ccc(N4CCOCC4)cc3)nc21 (stereo not drawn)', '> 10000 nM'),
  ('CN1CCN(c2ccc(Nc3ncc4ccc(=O)n(C5CCc6ccccc65)c4n3)cc2)CC1 (stereo not drawn)', '1000 to 10000 nM'),
  ('CN1CCN(c2ccc(Nc3ncc4ccc(=O)n(Cc5ccccc5OC(F)(F)F)c4n3)cc2)CC1 [compound 95]', '1000 to 10000 nM'),
  ('CC(c1ccccc1)n1c(=O)ccc2cnc(Nc3ccc(N4CCN(C)CC4)cc3)nc21 (stereo not drawn)', '1000 to 10000 nM'),
  ('O=c1ccc2cnc(Nc3ccc(NC4CCCNC4)cc3)nc2n1Cc1ccccc1C(F)(F)F (stereo not drawn)', '< 1000 nM'),
  ('CN1CCN(c2ccc(Nc3ncc4ccc(=O)n(Cc5ccccc5F)c4n3)cc2)CC1', '1000 to 10000 nM'),
  ('O=c1ccc2cnc(Nc3ccc(N4CCNCC4)c(F)c3)nc2n1Cc1ccccc1-c1ncno1', '1000 to 10000 nM'),
  ('CN1CCN(c2ccc(Nc3ncc4ccc(=O)n(C5CCc6ccccc6C5)c4n3)cc2)CC1 (stereo not drawn)', '< 1000 nM'),
  ('CN1CCN(c2ccc(Nc3ncc4ccc(=O)n(Cc5ccccc5C(F)(F)F)c4n3)cc2)CC1', '< 1000 nM'),
  ('Cc1ccc(C)c(Cn2c(=O)ccc3cnc(Nc4ccc(N5CCN(C)CC5)cc4)nc32)c1', '1000 to 10000 nM'),
  ('Cc1ccccc1Cn1c(=O)ccc2cnc(Nc3ccc(N4CCN(C)CC4)cc3)nc21 [compound 93]', '1000 to 10000 nM'),
  ('O=c1ccc2cnc(Nc3ccc(N4CCNCC4)c(F)c3)nc2n1C1Cc2ccccc2C1', '< 1000 nM'),
  ('CN1CCN(c2ccc(Nc3ncc4ccc(=O)n(Cc5c(F)cccc5[S+](C)[O-])c4n3)cc2)CC1 (stereo not drawn)', '1000 to 10000 nM'),
  ('CN1CCN(c2ccc(Nc3ncc4ccc(=O)n(Cc5ccncc5)c4n3)cc2)CC1', '> 10000 nM'),
  ('CN1CCN(c2ccc(Nc3ncc4ccc(=O)n([C@@H]5CCCc6ccccc65)c4n3)cc2)CC1', '1000 to 10000 nM'),
  ('CN1CCCC(Nc2ccc(Nc3ncc4ccc(=O)n(Cc5ccccc5C(F)(F)F)c4n3)cc2)C1 (stereo not drawn)', '< 1000 nM'),
  ('O=c1ccc2cnc(Nc3ccc(N4CCNCC4)c(F)c3)nc2n1C1CCc2ccccc2C1 (stereo not drawn)', '< 1000 nM');
